Just for reference, ChEMBL document CHEMBL5120960 is where these values come from.

TESTED_TARGET: UniProtKB P56373
Sequence (P56373 whole entry): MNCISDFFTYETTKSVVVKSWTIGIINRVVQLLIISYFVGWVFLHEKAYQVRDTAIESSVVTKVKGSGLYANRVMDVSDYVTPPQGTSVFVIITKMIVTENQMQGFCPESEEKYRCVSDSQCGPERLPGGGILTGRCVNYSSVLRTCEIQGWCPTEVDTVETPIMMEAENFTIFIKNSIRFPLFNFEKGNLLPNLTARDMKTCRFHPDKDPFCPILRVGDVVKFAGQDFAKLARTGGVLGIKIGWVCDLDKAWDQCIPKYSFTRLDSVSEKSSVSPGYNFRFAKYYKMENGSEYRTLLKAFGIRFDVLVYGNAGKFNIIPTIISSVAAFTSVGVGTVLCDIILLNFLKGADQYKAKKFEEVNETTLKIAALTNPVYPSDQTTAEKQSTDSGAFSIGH
MEASUREMENT_DESCRIPTION: […] activity at human P2X3R expressing CHO cells assessed as reduction in intracellular Ca2+ influx pretreated with Fluo-4 for 1 hr followed by compound addition and further incubated for 30 mins in presence of ATP by multimode plate reader analysis
Assay type: cell-based
ENDPOINT_NAME: IC50 (nM)
Only the number, expressed in nM, is required.

CNc1ncnc2c1ncn2[C@@H]1O[C@H](COP(=O)(O)OP(=O)(O)OP(=O)(O)O)[C@@H](O)[C@H]1O :: 1290
O=P(O)(O)OP(=O)(O)OP(=O)(O)OC[C@H]1O[C@@H](n2cnc3c(Nc4ccccc4)ncnc32)[C@H](O)[C@@H]1O :: 209

Item: O=P(O)(O)OP(=O)(O)OP(=O)(O)OC[C@H]1O[C@@H](n2cnc3c(Cl)ncnc32)[C@H](O)[C@@H]1O | IC50: 741

Item: CCCCNc1ncnc2c1ncn2[C@@H]1O[C@H](COP(=O)(O)OP(=O)(O)OP(=O)(O)O)[C@@H](O)[C@H]1O | IC50: 30200

====

TESTED_TARGET: P2X purinoceptor 1 (Homo sapiens, UniProt P51575)
Sequence (P51575 whole entry): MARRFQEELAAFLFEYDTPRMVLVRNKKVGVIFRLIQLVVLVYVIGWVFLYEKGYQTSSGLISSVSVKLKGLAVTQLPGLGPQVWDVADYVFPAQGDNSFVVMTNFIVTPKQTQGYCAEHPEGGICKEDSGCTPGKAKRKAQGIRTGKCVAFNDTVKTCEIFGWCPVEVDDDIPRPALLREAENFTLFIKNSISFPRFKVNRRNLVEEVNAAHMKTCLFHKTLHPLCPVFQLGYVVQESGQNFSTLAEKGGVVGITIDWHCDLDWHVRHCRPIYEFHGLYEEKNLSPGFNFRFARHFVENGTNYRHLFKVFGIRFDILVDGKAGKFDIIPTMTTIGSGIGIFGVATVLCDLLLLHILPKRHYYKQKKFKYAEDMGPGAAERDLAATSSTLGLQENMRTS
MEASUREMENT_DESCRIPTION: Antagonist activity at human P2X1R expressing CHO cells assessed as reduction in intracellular Ca2+ influx pretreated with Fluo-4 for 1 hr followed by compound addition and further incubated for 30 mins in presence of ATP by multimode plate reader analysis
Assay type: cell-based
Listing of recorded IC50 by entry.

The following molecules have reported results that may help.
COc1ccc(C(=O)O[C@@H]2[C@H](OC(=O)c3ccc(OC)cc3)[C@@H](COP(=O)(O)OP(=O)(O)OP(=O)(O)O)O[C@H]2n2cnc3c(N)ncnc32)cc1 :: > 100 µM
Nc1ncnc2c1ncn2[C@@H]1O[C@H](COP(=O)(O)OP(=O)(O)OP(=O)(O)O)[C@@H](OC(=O)c2ccccc2)[C@H]1OC(=O)c1ccccc1 :: > 100 µM

Item: Nc1ncnc2c1ncn2[C@@H]1O[C@H](COP(=O)(O)OP(=O)(O)OP(=O)(O)O)[C@@H](OC(=O)c2cccc3ccccc23)[C@H]1OC(=O)c1cccc2ccccc12 | IC50: 15.8 µM

====

TESTED_TARGET: P2X purinoceptor 2 (Homo sapiens)
MEASUREMENT_DESCRIPTION: […] activity at human P2X2R expressing CHO cells assessed as reduction in intracellular Ca2+ influx pretreated with Fluo-4 for 1 hr followed by compound addition and further incubated for 30 mins in presence of ATP by multimode plate reader analysis
Format: cell-based
ENDPOINT_NAME: IC50

CNc1ncnc2c1ncn2[C@@H]1O[C@H](COP(=O)(O)OP(=O)(O)OP(=O)(O)O)[C@@H](O)[C@H]1O :: > 100 µM

# input for lookup
Item: O=P(O)(O)OP(=O)(O)OP(=O)(O)OC[C@H]1O[C@@H](n2cnc3c(NCc4ccccc4)ncnc32)[C@H](O)[C@@H]1O | IC50: 3.98 µM

====

TESTED_TARGET: P2X2/P2X3 heterotrimeric receptor (Homo sapiens, UniProt P56373+Q9UBL9)
MEASUREMENT_DESCRIPTION: […] activity at human P2X2R/P2X3R expressing CHO cells assessed as reduction in intracellular Ca2+ influx pretreated with Fluo-4 for 1 hr followed by compound addition and further incubated for 30 mins in presence of ATP by multimode plate reader analysis
Assay type: cell-based
pIC50: −log10 of the molar value.
# cutoff 6 applies to pIC50; >= gives Fulfilled, < gives Not fulfilled

Consider the following illustrative entries.
O=P(O)(O)OP(=O)(O)OP(=O)(O)OC[C@H]1O[C@@H](n2cnc3c2ncn2ccnc32)[C@H](O)[C@@H]1O :: Fulfilled
Nc1ncnc2c1ncn2[C@@H]1O[C@H](COP(=O)(O)OP(=O)(O)OP(=O)(O)O)[C@@H](O)[C@H]1N :: Fulfilled
COc1ccc(C(=O)O[C@@H]2[C@H](OC(=O)c3ccc(OC)cc3)[C@@H](COP(=O)(O)OP(=O)(O)OP(=O)(O)O)O[C@H]2n2cnc3c(N)ncnc32)cc1 :: Not fulfilled

Prompt: Hi, just wondering whether O=P(O)(O)OP(=O)(O)OP(=O)(O)OC[C@H]1O[C@@H](n2cnc3c(S)ncnc32)[C@H](O)[C@@H]1O shows pIC50 of 6 or higher.
Response: Fulfilled

Prompt: Hi, just wondering whether O=P(O)(O)OP(=O)(O)OP(=O)(O)OC[C@H]1O[C@@H](n2cnc3c(Nc4ccccc4)ncnc32)[C@H](O)[C@@H]1O shows pIC50 of 6 or higher.
Response: Fulfilled

Prompt: Hi, just wondering whether CO[C@@H]1[C@H](O)[C@@H](COP(=O)(O)OP(=O)(O)OP(=O)(O)O)O[C@H]1n1cnc2c(N)ncnc21 shows pIC50 of 6 or higher.
Response: Not fulfilled

Prompt: Hi, just wondering whether O=c1[nH]c2cncnc2n1[C@@H]1O[C@H](COP(=O)(O)OP(=O)(O)OP(=O)(O)O)[C@@H](O)[C@H]1O shows pIC50 of 6 or higher.
Response: Not fulfilled

Prompt: Hi, just wondering whether [N-]=[N+]=Nc1nc2c(N)ncnc2n1[C@@H]1O[C@H](COP(=O)(O)OP(=O)(O)OP(=O)(O)O)[C@@H](O)[C@H]1O shows pIC50 of 6 or higher.
Response: Not fulfilled

Prompt: Hi, just wondering whether O=P(O)(O)OP(=O)(O)OP(=O)(O)OC[C@H]1O[C@@H](n2cnc3c(Cl)ncnc32)[C@H](O)[C@@H]1O shows pIC50 of 6 or higher.
Response: Fulfilled

Prompt: Hi, just wondering whether O=P(O)(O)OP(=O)(O)OP(=O)(O)OC[C@H]1O[C@@H](n2cnc3c(NCc4ccccc4)ncnc32)[C@H](O)[C@@H]1O shows pIC50 of 6 or higher.
Response: Not fulfilled

Prompt: Hi, just wondering whether CNc1ncnc2c1ncn2[C@@H]1O[C@H](COP(=O)(O)OP(=O)(O)OP(=O)(O)O)[C@@H](O)[C@H]1O shows pIC50 of 6 or higher.
Response: Fulfilled

Prompt: Hi, just wondering whether Nc1ncnc2c1ncn2[C@@H]1O[C@H](COP(=O)(O)OP(=O)(O)OP(=O)(O)O)[C@@H](O)[C@@H]1O shows pIC50 of 6 or higher.
Response: Not fulfilled

Prompt: Hi, just wondering whether Nc1ncnc2c1ncn2[C@@H]1O[C@H](COP(=O)(O)OP(=O)(O)OP(=O)(O)O)[C@@H](O)[C@H]1F shows pIC50 of 6 or higher.
Response: Not fulfilled

====

TESTED_TARGET: P2X purinoceptor 3 (Homo sapiens)
MEASUREMENT_DESCRIPTION: […] activity at human P2X3R expressing CHO cells assessed as reduction in intracellular Ca2+ influx pretreated with Fluo-4 for 1 hr followed by compound addition and further incubated for 30 mins in presence of ATP by multimode plate reader analysis
Format: cell-based
ENDPOINT_NAME: log10 IC50 (log10 of the value in µM)
Hey, these are logged values: log10 of IC50, µM being the unit before logging.

The following compounds have reported results that may help.
Nc1ncnc2c1ncn2[C@@H]1O[C@H](COP(=O)(O)OP(=O)(O)OP(=O)(O)O)[C@@H](O)[C@H]1N :: 0.63
O=P(O)(O)OP(=O)(O)OP(=O)(O)OC[C@H]1O[C@@H](n2cnc3c2ncn2ccnc32)[C@H](O)[C@@H]1O :: 0.00
O=c1[nH]c2cncnc2n1[C@@H]1O[C@H](COP(=O)(O)OP(=O)(O)OP(=O)(O)O)[C@@H](O)[C@H]1O :: 1.04
Nc1ncnc2c1ncn2[C@@H]1O[C@H](COP(=O)(O)OP(=O)(O)OP(=O)(O)O)[C@@H](O)[C@H]1F :: 1.02

# input for lookup
Item: O=P(O)(O)OP(=O)(O)OP(=O)(O)OC[C@H]1O[C@@H](n2cnc3c(S)ncnc32)[C@H](O)[C@@H]1O | log10 IC50: 0.18

====

TESTED_TARGET: P2X purinoceptor 2 (Homo sapiens)
Sequence (Q9UBL9 whole entry): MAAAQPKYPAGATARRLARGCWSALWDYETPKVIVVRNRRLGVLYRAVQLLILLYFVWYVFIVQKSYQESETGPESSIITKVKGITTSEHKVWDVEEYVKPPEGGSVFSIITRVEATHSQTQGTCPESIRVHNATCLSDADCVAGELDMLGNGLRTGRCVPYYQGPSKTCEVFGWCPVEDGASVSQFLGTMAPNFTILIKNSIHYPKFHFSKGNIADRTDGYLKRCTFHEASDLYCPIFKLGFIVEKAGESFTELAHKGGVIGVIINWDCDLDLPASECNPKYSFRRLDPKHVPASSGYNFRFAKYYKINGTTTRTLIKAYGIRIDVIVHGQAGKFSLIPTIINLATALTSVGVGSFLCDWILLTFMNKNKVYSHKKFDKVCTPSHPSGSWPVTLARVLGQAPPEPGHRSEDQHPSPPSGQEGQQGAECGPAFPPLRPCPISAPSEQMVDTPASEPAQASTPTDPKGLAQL
MEASUREMENT_DESCRIPTION: Antagonist activity at human P2X2R expressing CHO cells assessed as reduction in intracellular Ca2+ influx pretreated with Fluo-4 for 1 hr followed by compound addition and further incubated for 30 mins in presence of ATP by multimode plate reader analysis
Format: cell-based
ENDPOINT_NAME: IC50

The following molecules have reported results that may help.
Nc1ncnc2c1ncn2[C@@H]1O[C@H](COP(=O)(O)OP(=O)(O)OP(=O)(O)O)[C@@H](OC(=O)c2cccc3ccccc23)[C@H]1OC(=O)c1cccc2ccccc12 :: 10 µM
Nc1ncnc2c1ncn2[C@@H]1O[C@H](COP(=O)(O)OP(=O)(O)OP(=O)(O)O)[C@@H](OC(=O)c2ccccc2)[C@H]1OC(=O)c1ccccc1 :: 26.3 µM

# input for lookup
The measured IC50 that COc1ccc(C(=O)O[C@@H]2[C@H](OC(=O)c3ccc(OC)cc3)[C@@H](COP(=O)(O)OP(=O)(O)OP(=O)(O)O)O[C@H]2n2cnc3c(N)ncnc32)cc1 showed for P2X purinoceptor 2 (Homo sapiens) is > 100 µM
